Protocol description: yeast display, Sf9 membrane polyspecificity reagent, FACS + sequencing; frameworks hold sequencing errors
Endpoint name: polyreactivity (PSR sort gate)

Biosequence	Measurement
QVQLVETGGGLFQAGVSLRLSCAASGSTFDGYVMGWYRQAPGKERELVAAISGSGGSTYYADSVKGRFTISRDHAQNTDYLQMISLKPEDTAVYYCAADSWWYDDYSEGDYWGQGTQVTVSS	low polyreactivity
QVQLVESGGGLVQAGGSLRLSCAASGRTFGFNAMGWYRQAPGKERELVAAISSSSSSTYYADSVKGRFTISRDIAKNTVYLQMNSLKPEDTAVYYCAADIVYVTWFYYWGQGTQVTVSS	low polyreactivity

====

Protocol description: yeast display, Sf9 membrane polyspecificity reagent, FACS + sequencing; frameworks hold sequencing errors

Biosequence	polyreactivity (PSR sort gate)
QVQLVESGGGLVQAGGSLRLSCAASGSIFVPYARGWYRQAPGKERELVAAISNGDSTYYADSVKGRFTISRDNAKNTVYLQMNSLKPEDTAVYYCAADAVKASVSYIVPYAAYDYWGQGTQVTVSS	low polyreactivity
QVQLVESGGGLVQAGGSLRLSCAASGITFDYNAMGWYRPAPGKERELVASITTNDDSTYYADSVKGRFTISRDNAKNTVYLQINSLKPEDTAVYSCNADQITGQFDYWGQGTQVTVSS	low polyreactivity

====

Protocol description: yeast display, Sf9 membrane polyspecificity reagent, FACS + sequencing; frameworks hold sequencing errors
Endpoint name: polyreactivity (PSR sort gate)

Observe how each entry below is paired with its result.
Biosequence	Measurement
QVQLVESGGGLVHAGGSLRLSCAASGITFEGNAMGWNRQAPGTERELVAAIRSSGTSTYYADSVKGRFTFSRDNEKKTVYLQMNSLKPEDTAVYYCNRARSSSRYDYWGEGTQVTVSS	low polyreactivity
QVQLVESGGGLVQAGGSLRLSCAASGSTFTPYAMGWSRKAPGKERELVAVIRWRGGRTYYADSVQGRFTISRDNAKNTVYLQMNSLKPEDTAVYYCAAGGSQGAGGYGYYGYDYWGQGTQETVSS	low polyreactivity
QVQLVESGGGLVQAGGSLRLSCAASGSTFGPYAMGWYRQAPGKERELVAAITWNGGSTYYADSVKGRFTISRDNAKNSVYLQMNSLKPEDTAVSFCNAVGSYGDFGYWGQGTQVTVSS	high polyreactivity
QVQLVESGGGLVQAGGSLRLSCAASGRTFEGNAMGWYRQAPGKERELVAAISGSGGRTYYADSVKGRFTISRDNAKNTVYLQMNSLKPEDTAVYYAKLYSVYNPWRFNYWGQGTQVTVSS	high polyreactivity

polyreactivity (PSR sort gate) for "QVQLVESGGGLVQAGGSLRLSCAASGRTFWKNTMGWYRQAPGKERELVAVISSGGVSTSYADSVKGRFTISRDNAKNTVYLQMNSLKPEDTAVYYCAADGYYIGPYDYWGQGTQVTVSS" ?
low polyreactivity

====

Protocol description: yeast display, Sf9 membrane polyspecificity reagent, FACS + sequencing; frameworks hold sequencing errors
Endpoint name: polyreactivity (PSR sort gate)

As a guide, the following entries are already answered.
Biosequence	polyreactivity (PSR sort gate)
QVQLVESGGGLVQAGGSLRLSCAASGSTFRQYAMGWYRQAPGKERELVAAISSSGSTTYYADSVKGRFTISRDNAKNTVYLQMNSLKPEDTAVYYCAAEYTFHYDYWGQGTQVTVSS	low polyreactivity
QVQLVESAGGLDQAGGSLPLSCAASGRIFRYNAMGWYRQAPGKERELVSAITWNGASTFYADSVKGRFTISRDNAKNSVYLLMNSLKPEDTAVYYCAYVRDFSGYWLWSYNLYDYWGQGTKVTVSS	high polyreactivity
QVQLVESGGGLVQAGGSLRLSCAASGNTFTWYTMGWYRQAPGKERELVAAISSSGGNTYYADSVKGRFTISRDNAKNTVYLQMNSLKPEDTAVYYCAADLSSAYGHDYRGQGTQVTVSS	low polyreactivity
QVQLVESGGGLVQAGGSLRLSCAASGSIFSKYAMGWYRQAPGKERELVAAISISDGNTYYADSVKGRFTISRDNAKNTVYLQMNSLKPEDTAVYYCATVGSEDGDPGFDYWGQGTQVTVSS	low polyreactivity
QVQLVESGGGLVQAGGSLRLSCAASGSIFPAYAMGWYRQAPGKERELVASITGSGGSTYYADSVKGRFTISRDNAKNTVYLQMNSLKPEDTAVYYCNARYYVYSATVDRYYHFYYWGQGTQVTVSS	high polyreactivity
QDQLVESGGGLVQAGGSLRLTCAASGGIFWSYAMGWYRQAPGKERDLVAAINWNAGSTYYADSVKGRFTISRDNAKNTVYLQMNSLKPEDTAVYYCAKVQWHLYDWGQGTQVTVSS	high polyreactivity

Reported polyreactivity (PSR sort gate) for "QVQLVESGGGLVQAGGSLRLSCAASGGIFGYYTRGWYRQAPGKEREVVAAISRRGGSTYYADSVKGRFTISRDNAKNTVYLQMNSLKPEDTAVYYCAAGLSSGGTHYDYWGQGTQVTVSS" : what is it?
high polyreactivity

====

Protocol description: yeast display, Sf9 membrane polyspecificity reagent, FACS + sequencing; frameworks hold sequencing errors
Endpoint name: polyreactivity (PSR sort gate)

Biosequence	Measurement
QVQLVDSGRGLVQAGGSLRLSCAASGFIFNPYVMGWYRQAPGKERELVAVITSGGSTNYADSVKGRFTISRDNAKNTVYLQMNSLKPEDTAVYYCNVDRRPYYVWRVTYDYWGQGTQVTVSS	low polyreactivity
QVQLVESGGGLVQAGGSLRLSCAASGLTLVTYAMGWYRQAPGNERELVAAINSGGSTNYADSVKGRFTISRDNAKNTVYLQMNSLKPEDTAVYYCNADRVSPATYDYWGQGTQVTVSS	low polyreactivity
QVQLVESGGGLVQAGGSLRLSCAASGLTLHGNAMGWYRQAPGKERELVATITSSGGSTFYADSVKGRFTISRDNAKNTVYLQMNSLKPEDTAVYYCNADAPYSDDYYVRFDYWGQGTQVTVSS	low polyreactivity

====

Protocol description: yeast display, Sf9 membrane polyspecificity reagent, FACS + sequencing; frameworks hold sequencing errors
Endpoint name: polyreactivity (PSR sort gate)

Biosequence	polyreactivity (PSR sort gate)
QVQLVESGGGLVQAGGSLRLSCAASGRIFNSYAMGWSRQAPGKERELVAAISSGGSTYYADSVKGRFTISRDNAKNTVYLQMKRLKPEDTAVYYCAARIWNGRGRKLGYGYDYWGQGTQVTVSS	low polyreactivity
QVQLVESGGGLVQAGGSLRLSCAASGSTLPPNAMGWSRQAPGKERELVAAISYSGDSTHYADSVKGRFTISRDNAKNTVYLQMNSLKPEDTAVYYCYASSPGAVPVYDYDYWGQGTQVTVSS	low polyreactivity
QVQLVESGGGLVQAGGSLRLSCAASRLTFRYYAMGWYRKAPGKERELVAAISSRGASTYYADSVKGRFTISRDNAKNTVYLQMNSLKPEDTAVYNCAVRTYVYHWSFSSLPYDYWGQGTQVTVSS	high polyreactivity
QVQLVESGGGLVQAGGSLRLSCAASGFTFVHNAMGWYRQAHGKERELVAAISSSGGRTYYADSVKGRFTISRDNAKNTVYLQMNSLKPEDTAVYYCATVNRYGPSYGYWGQGTQVTVSS	high polyreactivity

Return reported polyreactivity (PSR sort gate); argument: "QVQLVESGGGLVQAGGSLRLSCAASGSIFSFYTMGWYRQAPGKERELVASSTTYADSVKGRFTISRDNAKNTVYLQMNSLQPEDTAVYYCATRHPARRDYWGQGTQVTVSS"
low polyreactivity

====

Protocol description: yeast display, Sf9 membrane polyspecificity reagent, FACS + sequencing; frameworks hold sequencing errors
Endpoint name: polyreactivity (PSR sort gate)

Biosequence	polyreactivity (PSR sort gate)
QVQLVESGGGLVQAGGSLRLSCAASGSIFRYNAMGWYRQAPGKERELVAAISLNTGSTYYADSVKGRFTISRDNAKNTVYLQMNSLKPEDTAVYYCNADDYTYATYEYDYWGQGTQVTVSS	low polyreactivity
QVQLVESGGGLVQAGGSLRLSCAASGLISHNNAMGWYRQAPGKEREFVAAITTTGSSTYYADSVKGRFTISRDNEKNTVYLQMNSLKPEDTAVYYCAAESVPSRSEMDYWGQGTQVTVSS	low polyreactivity
QVQLVESGGGLVQAGGSLRLSCAASGITFDQNAMGWYRQAPGKEREFVAAISVSGGRTYYADSVKGRFTISRDNAKNTVYLQMNSLKPEDTAVYYCAAYGGTRYYYSYYYWGQGTQVTVSS	high polyreactivity
QVQLVESGVGLVQARGSLRLSSASSGSILSTYAMGCYRQAPGKERELVASISSNAGSTYYADSVKGRFTISRDNAKNTVYLQMNSLKPEDTAVYYCNVKYKYYSPNYDYWGEGTQVTVSS	low polyreactivity
QVQLQESGGGLVQAGGSLRLSSAASGNFFDADIIGRYRQAPGKERELVASITDGGSTNYADSVKGRFTISRDDTRNTVHLQMNSLYPEDTAVYYCAAIAYPDIPTYFDYDSDYSYWGQGTQVTVSS	high polyreactivity
QVQLVESGGGLVQAGGSLRLSCAASGSTFLSNAMGWYRQAPGKERELVAGITSGTSTYYADSVKGRFTISRDNAKYTVYLQMNSLKPEDTAVYYCNADDAEVLYQYVEYDYWGQGTQVTVSS	low polyreactivity
QVQLVESGGGLVQAGGSLRLSCAASGFIFDQNAMGWYRQAPGKERELVAAISKRGGSTYYADSVKGRFTISRDTAKNTVYLQMNSLKPEDTAVYYCATRSWGPYYYGYNHWGQGTQVTVSS	high polyreactivity
QVQLVESGGGLVQAGGSLGLSCAASGRTFGYYAMGWYRQAPGTERALVAAIRSTGSTNYADSVKGRFTISRDNAKNTVYLQMNSLIPEDTAVYYCYAKRRFRYDYWGQGTQVTVSS	low polyreactivity

Fill in: polyreactivity (PSR sort gate) of "QVQLVESGGGLVQAGGSLRLICAASGIIFGYYAMGWYRQAPGKERELVAAITSGASTDYADSVKGRFTISRDNAKNTFYLQMNSLKPEDTAVFFCNADTSASTYTFPFDYCGQGTQVTVSS" is ___
low polyreactivity

Item under review: "QVQLVESGGGLVQAGGSLRLSCAASGSTFYKYAMGRYREAPRKERELVASISRSGGSTSYADSVTGRFTISRDNAKNTVYLQMNSLTPEDTAVYYCAATWRQHPGSMGYWGQGTQVTVSS" . Reported polyreactivity (PSR sort gate)?
high polyreactivity

# polyreactivity (PSR sort gate) lookup, item "QVQLVESGGGLVQAGGSLRLSCAASGNIIDANAIGWYRPAPGKERQLVAAITSSGGSTYYADSVKGRFTISRDNAKNTVYLQMNSLKPEDTAVYYCAKSHAIYYWWDESWGQGTQVTVSS"
low polyreactivity
